Each recorded value in this set is attributed to the Deep4Chem optical property database.

assay: solvent given as SMILES; settings: in Cc1ccccc1
This section presents compounds with their documented absorption maximum values.
quantity: absorption maximum (nm)

[[record]]
input_smiles = "c1ccc2c(c1)CCc1ccccc1N2c1c2ccccc2c(N2c3ccccc3CCc3ccccc32)c2ccccc12"
unit_name = "nm"
result = 456

[[record]]
input_smiles = "COC(=O)CN1C(=O)c2cc3ccc(N(C)C)cc3cc2C1=O"
unit_name = "nm"
result = 373

[[record]]
input_smiles = "CC(C)(C)c1ccc(/C=C/c2ccc(N(c3ccc(/C=C/c4ccc(C(C)(C)C)cc4)cc3)c3ccc(-c4nc5ccccc5nc4-c4ccc(N(c5ccc(/C=C/c6ccc(C(C)(C)C)cc6)cc5)c5ccc(/C=C/c6ccc(C(C)(C)C)cc6)cc5)cc4)cc3)cc2)cc1"
unit_name = "nm"
result = 373

[[record]]
input_smiles = "CCCCCCCCN1c2ccc(C#Cc3ccc(F)cc3)cc2Sc2cc(C=O)ccc21"
unit_name = "nm"
result = 381.99

[[record]]
input_smiles = "O=S(=O)(c1ccccc1)c1ccc(-c2ccc3c(c2)c2cc(-c4ccc(S(=O)(=O)c5ccccc5)cc4)ccc2n3-c2ccccc2)cc1"
unit_name = "nm"
result = 340

